- experimental.target: α-synuclein (fibrils) (Homo sapiens, UniProt P37840)
- Construct: recombinant human α-synuclein, preformed amyloid fibrils
- protocol.description: fluorescence polarization with fibrils (Kd in monomer equivalents); supported by mass spectrometry pull-down, fluorescence colocalization and aggregation kinetics
readout: Kd

Request: Return Kd measured with α-synuclein (fibrils) (Homo sapiens, UniProt P37840) given this compound: Cc1c(OCc2nnn[nH]2)ccc2c1oc(=O)c1ccccc12
Result: ~4 µM
